All figures here come from ChEMBL document CHEMBL1121964.

# Test system: Rattus norvegicus
# PROTOCOL_TEXT: The dosage at which 50% of the animals were cataleptic was measured after (ip) administration in male Sprague-Dawley rats
# Type: functional
Binning scheme for ED50: low class: < 8 µmol/kg; middle class: ≥ 8 µmol/kg and < 20 µmol/kg; high class: ≥ 20 µmol/kg

Example entries and their recorded answers appear below.
COMPOUND: O=C(CCCN1CCC(O)(c2ccc(Cl)cc2)CC1)c1ccc(F)cc1
TARGET: Rattus norvegicus
ASSIGNED_CLASS: low class
--
COMPOUND: CCOc1ccc(Cl)c(OCC)c1C(=O)NCC1CCCN1CC (stereo unspecified)
TARGET: Rattus norvegicus
ASSIGNED_CLASS: high class
--
COMPOUND: CCN1CCCC1CNC(=O)c1c(OC)c(Cl)cc(Br)c1OC (stereo unspecified)
TARGET: Rattus norvegicus
ASSIGNED_CLASS: low class
--
COMPOUND: CCOc1ccc(Br)c(OCC)c1C(=O)NCC1CCCN1CC (stereo unspecified)
TARGET: Rattus norvegicus
ASSIGNED_CLASS: middle class
--
COMPOUND: CCN1CCCC1CNC(=O)c1c(OC)ccc(Br)c1OC.Cl (stereo unspecified)
TARGET: Rattus norvegicus
ASSIGNED_CLASS: high class

// query Pick a category. Item: CCN1CCCC1CNC(=O)c1cc(S(N)(=O)=O)ccc1OC (stereo unspecified) [SULPIRIDE]
// result high class

// query Pick a category. Item: "CCN1CCC[C@H]1CNC(=O)c1c(OC)c(Br)cc(Br)c1OC"
// result low class

---

# PROTOCOL_TEXT: The acute toxicity was assessed after (ip) administration in male Sprague-Dawley rats
# Assay type: organism-based
# SETUP_CONDITIONS: rat, in vivo
Answer each item with its documented LD50.
Give bare numbers, in µmol/kg.

COMPOUND: CCN1CCCC1CNC(=O)c1c(OC)c(Cl)cc(Cl)c1OC (centres undefined)
LD50 [µmol/kg]: 224

COMPOUND: CCN1CCCC1CNC(=O)c1c(OC)c(Cl)cc(Br)c1OC (centres undefined)
LD50 [µmol/kg]: 206

COMPOUND: CCN1CCCC1CNC(=O)c1c(OC)c(Br)cc(Br)c1OC.Cl (centres undefined)
LD50 [µmol/kg]: 177

COMPOUND: CCN1CCC[C@H]1CNC(=O)c1c(OC)ccc(Br)c1OC.Cl
LD50 [µmol/kg]: 794

COMPOUND: CCOc1ccc(Br)c(OCC)c1C(=O)NC[C@@H]1CCCN1CC.Cl
LD50 [µmol/kg]: 206

// each compound listed below needs its LD50
1. CCN1CCCC1CNC(=O)c1c(OC)ccc(Br)c1OC.Cl (centres undefined)
2. CCN1CCC[C@@H]1CNC(=O)c1c(OC)c(Br)cc(Br)c1OC

// result
1: 817; 2: 159

---

# System: Rattus norvegicus
# PROTOCOL_TEXT: The dosage at which 50% of the animals were cataleptic was measured after (ip) administration in male Sprague-Dawley rats
# Format: functional
MEASUREMENT_TYPE: ED50 (µmol/kg)
Answers are plain numbers, in µmol/kg.

Example results:
COMPOUND: CCN1CCCC1CNC(=O)c1c(OC)c(Cl)cc(Cl)c1OC (centres undefined)
UNIT_OF_MEASURE: µmol/kg
OBSERVED_RESULT: 16.8
//
COMPOUND: CCN1CCCC1CNC(=O)c1c(OC)c(Br)cc(Br)c1OC.Cl (centres undefined)
UNIT_OF_MEASURE: µmol/kg
OBSERVED_RESULT: 8.2

// each compound listed below needs its ED50
1. CCOc1ccc(Br)c(OCC)c1C(=O)NC[C@@H]1CCCN1CC.Cl
2. CCN1CCC[C@H]1CNC(=O)c1c(OC)ccc(Br)c1OC.Cl

// result
1: 8.9; 2: 24.5
